Every entry's value here was drawn from paper PMC7477610.

Each item that follows carries a reported CC50 at 48 h.
assay: Cytotoxicity assay; format: cell-based; details: African green monkey, Vero E6 cells

Compound	CC50 at 48 h
CCN(CCO)CCCC(C)Nc1ccnc2cc(Cl)ccc12 (stereo not drawn) [Hydroxychloroquine]	20.4 µM
Clc1ccc2c(N3CCN(CCCN4CCN(c5ccnc6cc(Cl)ccc56)CC4)CC3)ccnc2c1	55 µM
C=C[C@H]1C[N@@]2CC[C@H]1C[C@H]2[C@H](O)c1ccnc2ccc(OC)cc12	> 100 µM
OC(c1cc(C(F)(F)F)nc2c(C(F)(F)F)cccc12)C1CCCCN1 (stereo not drawn)	14.4 µM
C[C@H]1[C@@H](O)O[C@@H]2O[C@@]3(C)CC[C@H]4[C@H](C)CC[C@@H]1[C@@]24OO3 [Dihydroartemisinin]	58.9 µM
CCCCN(CCCC)CC(O)c1cc(Cl)cc2c1-c1ccc(Cl)cc1/C2=C/c1ccc(Cl)cc1 (stereo not drawn)	87.7 µM
COc1ccc2nc3cc(Cl)ccc3c(Nc3cc(CN4CCCC4)c(O)c(CN4CCCC4)c3)c2n1	15.9 µM
CCNCc1cc(Nc2ccnc3cc(Cl)ccc23)ccc1O	86.1 µM
CCN(CC)CCCC(C)Nc1ccnc2cc(Cl)ccc12 (stereo not drawn)	> 100 µM
